test system: Hepatitis C virus; assay: Antiviral activity against Hepatitis C virus genotype 1b Con1 infected in human 2209-23 cells after 72 hrs by luciferase reporter gene assay in presence of 40% human serum; type: functional, organism-based, Hepacivirus hominis; details: isolate Con1, 2209-23, 72 h
Hi! Could you tag entries with EC50 below 8 nM as Fulfilled, and those at or above as Not fulfilled? Much appreciated.

Example entries begin here.
{"smilesEntry": "COc1c(C(C)(C)C)cc(-n2ccc(=O)[nH]c2=O)c2ncc(-c3ccc(NS(C)(=O)=O)cc3)cc12", "answerLabel": "Fulfilled"}
{"smilesEntry": "COc1ccc(-c2cc(C(C)(C)C)c(OC)c3cc(N4CC[C@H](CNS(C)(=O)=O)C4)cnc23)c(=O)[nH]1", "answerLabel": "Fulfilled"}
{"smilesEntry": "COc1c(C(C)(C)C)cc(N2CCC(=O)NC2=O)c2ncc(-c3ccc(NS(C)(=O)=O)cc3)cc12", "answerLabel": "Fulfilled"}
{"smilesEntry": "COc1c(C(C)(C)C)cc(-c2ccc[nH]c2=O)c2ncc(-c3ccc(NS(C)(=O)=O)cc3)cc12", "answerLabel": "Not fulfilled"}

Alright, here's another compound for you.
[in] Confirm or reject: EC50 of "COc1ccc(-c2cc(C(C)(C)C)c(OC)c3cc(-c4ccc(NS(C)(=O)=O)cc4)cnc23)c(=O)[nH]1" lies strictly below 8 nM
[out] Fulfilled

---

assay: Half life in Beagle dog at 1 mg/kg, iv; type: ADME, organism-based, Canis lupus familiaris; set-up: dose 1 mg/kg, route intravenous; details: in vivo
recordedMetric: half-life (h)
Give the value in h but do not write h after it.

[in] # query: half-life of entry "COc1ccc(-c2cc(C(C)(C)C)c(OC)c3cc(N4CC[C@H](CNS(C)(=O)=O)C4)cnc23)c(=O)[nH]1"
[out] 5.1

---

Let's look at some compounds and their measured EC90.
tested on: Hepatitis C virus; assay: Antiviral activity against Hepatitis C virus genotype 1a H77 infected in human 2209-23 cells after 72 hrs by luciferase reporter gene assay in presence of 40% human serum; format: functional, organism-based, Hepacivirus hominis; details: genotype 1a H77, 2209-23, 72 h
Give the value in nM but do not write nM after it.

Reference set (5 entries):
{"smilesEntry": "COc1ccc(-c2cc(C(C)(C)C)c(OC)c3cc(N4CC[C@H](CNS(C)(=O)=O)C4)cnc23)c(=O)[nH]1", "EC90 / nM": 61}
{"smilesEntry": "COc1c(/C=C/c2ccc(NS(C)(=O)=O)cc2)cc(-c2cc(F)c[nH]c2=O)cc1C(C)(C)C", "EC90 / nM": 531}
{"smilesEntry": "COc1c(C(C)(C)C)cc(N2CCC(=O)NC2=O)c2ncc(-c3ccc(NS(C)(=O)=O)cc3)cc12", "EC90 / nM": 48}
{"smilesEntry": "COc1ccc(-c2cc(C(C)(C)C)c(OC)c3cc(-c4ccc(NS(C)(=O)=O)cc4)cnc23)c(=O)[nH]1", "EC90 / nM": 63}
{"smilesEntry": "COc1c(C(C)(C)C)cc(-c2ccc[nH]c2=O)c2ncc(-c3ccc(NS(C)(=O)=O)cc3)cc12", "EC90 / nM": 25}

[in] # query: EC90 of entry "COc1c(C(C)(C)C)cc(-n2ccc(=O)[nH]c2=O)c2ncc(-c3ccc(NS(C)(=O)=O)cc3)cc12"
[out] 123
